Assay: Ability to kill 50% of the animals after 24h, when administered perorally
Type: ADME, organism-based
Settings: mouse, in vivo, po
Each record is given yes if its reported LD50 at 24 h is strictly below 400 mg/kg. Records at or above 400 mg/kg are given no.

Consider the following illustrative entries.
Molecule: CCOC(=O)[C@@]1(c2ccccc2)CC1CN(CCO)CCO.O=C(O)/C=C\C(=O)O (stereo partly specified)
Class name: no
//
Molecule: CCN(CC)C(=O)[C@@]1(c2ccccc2)CC1CNC.O=C(O)C(=O)O (stereo partly specified)
Class name: yes
//
Molecule: CCOC(=O)[C@@]1(c2ccccc2)CC1CN(C(C)C)C(C)C.O=C(O)/C=C\C(=O)O (stereo partly specified)
Class name: no
//
Molecule: CCNC(=O)[C@@]1(c2ccccc2)CC1CN.O=C(O)C(=O)O (stereo partly specified)
Class name: yes
//
Molecule: COC(=O)[C@@]1(c2ccccc2)CC1CN(C)C.Cl (stereo partly specified)
Class name: no

Input CCOC(=O)[C@@]1(c2ccccc2)CC1CNC.Cl (stereo partly specified) ; condition: LD50 at 24 h strictly below 400 mg/kg. Does it hold?
no

Input CC(C)N(C(=O)[C@@]1(c2ccccc2)CC1CN)C(C)C.Cl (stereo partly specified) ; condition: LD50 at 24 h strictly below 400 mg/kg. Does it hold?
yes

Input CC(C)OC(=O)[C@@]1(c2ccccc2)CC1CN(C)C.Cl (stereo partly specified) ; condition: LD50 at 24 h strictly below 400 mg/kg. Does it hold?
no

Input CCOC(=O)[C@@]1(c2ccc(Cl)cc2)CC1CN(C)C.Cl (stereo partly specified) ; condition: LD50 at 24 h strictly below 400 mg/kg. Does it hold?
no

Input CCN(CC)C(=O)[C@]1(c2cccc(Cl)c2)CC1CN.Cl (stereo partly specified) ; condition: LD50 at 24 h strictly below 400 mg/kg. Does it hold?
yes

Input Cl.NCC1C[C@@]1(C(=O)O)c1ccccc1 (stereo partly specified) ; condition: LD50 at 24 h strictly below 400 mg/kg. Does it hold?
no

---

Test system: Mus musculus
Test: Ability to kill 50% of the animals (administered orally), after sublethal dose of yohimbine (25 mg/Kg) when given subcutaneously.
Type: functional
The following molecules are shown together with reported ED50 values.
Reply with just the number (in mg/kg).

For CNCCCN1c2ccccc2CCc2ccccc21 , what is its reported ED50?
2

For CCN(CC)C(=O)[C@]1(c2ccccc2)C[C@H]1CN.Cl , what is its reported ED50?
0.5

For CCOC(=O)[C@@]1(c2ccccc2)CC1CN(C(C)C)C(C)C.O=C(O)/C=C\C(=O)O (stereo partly specified) , what is its reported ED50?
70

For CCN(CC)C(=O)[C@]1(c2cccc(Cl)c2)CC1CN.Cl (stereo partly specified) , what is its reported ED50?
3

For CCCCN(C)CC1C[C@@]1(C(=O)OCC)c1ccccc1.Cl (stereo partly specified) , what is its reported ED50?
27

For C=CCOC(=O)[C@@]1(c2ccccc2)CC1CN(C)C.O=C(O)/C=C/C(=O)O (stereo partly specified) , what is its reported ED50?
16

For CCOC(=O)[C@@]1(c2ccc(F)cc2)CC1CN(C)C.Cl (stereo partly specified) , what is its reported ED50?
12

For Cc1ccc([C@]2(C(=O)OC(C)C)CC2CN)cc1.Cl (stereo partly specified) , what is its reported ED50?
30

For CC(C)OC(=O)[C@@]1(c2ccc(Cl)cc2)CC1CN.Cl (stereo partly specified) , what is its reported ED50?
2

---

Species on record: Mus musculus
Assay: Percent increase of the diameter of the test pupil (% mydriasis) in comparison with that of the control pupil.
Type: functional
Each record is given True if its reported Mydriasis is strictly below 30%. Records at or above 30% are given False.

Consider the following illustrative entries.
Molecule: C=CCOC(=O)[C@@]1(c2ccccc2)CC1CN(C)C.O=C(O)/C=C/C(=O)O (stereo partly specified)
Class name: False
--
Molecule: CC(C)OC(=O)[C@@]1(c2ccccc2)CC1CN.Cl (stereo partly specified)
Class name: True
--
Molecule: CCOC(=O)[C@@]1(c2ccc(OC)cc2)CC1CN(C)C.Cl (stereo partly specified)
Class name: False
--
Molecule: CCCCN(C)CC1C[C@@]1(C(=O)OCC)c1ccccc1.Cl (stereo partly specified)
Class name: False
--
Molecule: CN(C)CCCN1c2ccccc2CCc2ccccc21
Class name: False

Input CCOC(=O)[C@@]1(c2ccccc2)CC1CN.Cl (stereo partly specified) ; condition: Mydriasis strictly below 30%. Does it hold?
False

---

The following compounds are shown together with reported Mydriasis values.
Organism: Mus musculus
Assay: Percent increase of the diameter of the test pupil (% mydriasis) in comparison with that of the control pupil.
Format: functional
Reply with just the number (in %).

Guide cases for Mydriasis, answers given:
Compound: CCOC(=O)[C@@]1(c2ccccc2)CC1CNCc1ccccc1.Cl (stereo partly drawn)
Endpoint value: 16

Compound: CCOC(=O)[C@@]1(c2ccccc2)CC1CNC.Cl (stereo partly drawn)
Endpoint value: 62

Compound: CCOC(=O)[C@@]1(c2ccccc2)CC1CN(C)C.Cl (stereo partly drawn)
Endpoint value: 40

Compound: CCCN(CCC)C(=O)[C@@]1(c2ccccc2)CC1CN.O=C(O)C(=O)O (stereo partly drawn)
Endpoint value: 27

Compound: CCOC(=O)[C@@]1(c2ccc(F)cc2)CC1CN(C)C.Cl (stereo partly drawn)
Endpoint value: 76

For CCOC(=O)[C@@]1(c2ccccc2)CC1CN1CCCC1.Cl (stereo partly drawn) , what is its reported Mydriasis?
53

For COC(=O)[C@@]1(c2ccccc2)CC1CN(C)C.Cl (stereo partly drawn) , what is its reported Mydriasis?
60

For CCOC(=O)[C@@]1(c2ccccc2)CC1CN(C)CCO.O=C(O)/C=C/C(=O)O (stereo partly drawn) , what is its reported Mydriasis?
23

For CC(C)OC(=O)[C@@]1(c2ccc(Cl)cc2)CC1CN.Cl (stereo partly drawn) , what is its reported Mydriasis?
23

For CCN(CC)C(=O)[C@]1(c2ccc(Cl)cc2)CC1CN.Cl (stereo partly drawn) , what is its reported Mydriasis?
11

For CC(C)OC(=O)[C@@]1(c2ccccc2)CC1CN(C)C.Cl (stereo partly drawn) , what is its reported Mydriasis?
73

For CN(C)CCCN1c2ccccc2CCc2ccc(Cl)cc21 , what is its reported Mydriasis?
38

For CCOC(=O)[C@@]1(c2ccccc2)CC1CN(C)CCc1ccccc1.Cl (stereo partly drawn) , what is its reported Mydriasis?
30

---

Tested on: Mus musculus
Experiment: Antagonism of tetrabenazine-induced ptosis in mice was evaluated after oral administration
Type: functional
The following molecules are shown together with reported ED50 values.
Reply with just the number (in mg/kg).

Guide cases for ED50, answers given:
Molecule: CCOC(=O)[C@@]1(c2ccccc2)CC1CN(C)C.Cl (stereo partly specified)
ED50, mg/kg: 1.4
//
Molecule: CC(C)OC(=O)[C@@]1(c2ccc(Cl)cc2)CC1CN.Cl (stereo partly specified)
ED50, mg/kg: 8
//
Molecule: COC(=O)[C@@]1(c2ccccc2)CC1CN(C)C.Cl (stereo partly specified)
ED50, mg/kg: 30
//
Molecule: CCOC(=O)[C@@]1(c2ccccc2)CC1CN.Cl (stereo partly specified)
ED50, mg/kg: 30
//
Molecule: CN(C)CCCN1c2ccccc2CCc2ccccc21 [IMIPRAMINE]
ED50, mg/kg: 5
//
Molecule: CCCOC(=O)[C@@]1(c2ccccc2)CC1CN(C)C.O=C(O)/C=C/C(=O)O (stereo partly specified)
ED50, mg/kg: 30

For CCN(CC)C(=O)[C@]1(c2ccc(Cl)cc2)CC1CN.Cl (stereo partly specified) , what is its reported ED50?
9

For CCOC(=O)[C@@]1(c2ccc(F)cc2)CC1CN(C)C.Cl (stereo partly specified) , what is its reported ED50?
8

For NCC1C[C@@]1(C(=O)N1CCCC1)c1ccccc1.O=C(O)C(=O)O (stereo partly specified) , what is its reported ED50?
20

For CCCN(CCC)C(=O)[C@@]1(c2ccccc2)CC1CN.O=C(O)C(=O)O (stereo partly specified) , what is its reported ED50?
5.5

For CC(C)N(C(=O)[C@@]1(c2ccccc2)CC1CN)C(C)C.Cl (stereo partly specified) , what is its reported ED50?
30

---

Assay: Ability to kill 50% of the animals after 24h, when administered perorally
Assay type: ADME, organism-based
Settings: mouse, in vivo, po
Assay readout: LD50 at 24 h (mg/kg)
Reply with just the number (in mg/kg).

Guide cases for LD50 at 24 h, answers given:
Molecule: CNCCCN1c2ccccc2CCc2ccccc21 [DESIPRAMINE]
LD50 at 24 h / mg/kg: 572
--
Molecule: CCN(CC)C(=O)[C@]1(c2ccccc2)C[C@H]1CN.Cl
LD50 at 24 h / mg/kg: 237
--
Molecule: CCOC(=O)[C@@]1(c2ccccc2)CC1CN(C)CCc1ccccc1.Cl (stereo partly drawn)
LD50 at 24 h / mg/kg: 1000
--
Molecule: NCC1C[C@@]1(C(=O)N1CCCC1)c1ccccc1.O=C(O)C(=O)O (stereo partly drawn)
LD50 at 24 h / mg/kg: 562
--
Molecule: Cc1ccc([C@]2(C(=O)OC(C)C)CC2CN)cc1.Cl (stereo partly drawn)
LD50 at 24 h / mg/kg: 1000
--
Molecule: CCOC(=O)[C@@]1(c2ccccc2)CC1CNCc1ccccc1.Cl (stereo partly drawn)
LD50 at 24 h / mg/kg: 316
--
Molecule: CCOC(=O)[C@@]1(c2ccccc2)CC1CN1CCCC1.Cl (stereo partly drawn)
LD50 at 24 h / mg/kg: 562
--
Molecule: C=CCOC(=O)[C@@]1(c2ccccc2)CC1CN(C)C.O=C(O)/C=C/C(=O)O (stereo partly drawn)
LD50 at 24 h / mg/kg: 1000
--
Molecule: CCN(CC)C(=O)[C@]1(c2ccccc2)C[C@@H]1CN.Cl [1R,2S-MILNACIPRAN HYDROCHLORIDE]
LD50 at 24 h / mg/kg: 562
--
Molecule: CCOC(=O)[C@@]1(c2ccccc2)CC1CN.Cl (stereo partly drawn)
LD50 at 24 h / mg/kg: 316

For CC(C)OC(=O)[C@@]1(c2ccccc2)CC1CN.Cl (stereo partly drawn) , what is its reported LD50 at 24 h?
100

For CN(C)CCCN1c2ccccc2CCc2ccc(Cl)cc21 [CLOMIPRAMINE] , what is its reported LD50 at 24 h?
556

For CCOC(=O)[C@@]1(c2ccc(OC)cc2)CC1CN(C)C.Cl (stereo partly drawn) , what is its reported LD50 at 24 h?
562

This collection of values is drawn from ChEMBL document CHEMBL1123671.
